- Target Entity: T1, TSHR coated onto tubes (human, UniProt P16473 21-764, limits assumed)
- T1 construct: whole entry named; also called TSHR coated tubes; thyrotropin receptor
- Experiment Notes: TSHR coated tubes, competitor 125I-M22 IgG
Measured % inhib of 125I-M22 IgG binding at 1 µg/mL, listed per entry.
Reply with just the number (in %).

As a guide, the following entries are already answered.
Binder	Value Observed
17D2 IgG (antibody, V domains shown) VH: DVQIQQSGPELVKPGASVKMSCKASGYSFTAYNMHWVKQTHGKSLEWIGYIDPYSGATSYHQKFKGKATLTVDKSSSTAYMRLNSLTSEDSAVYYCARRWDWDPYAMDYWGQGTSVTVSS VL: SVEMSQSPAILSVSPGERISFSCRASQSIGTSIHWYQQRTNGSPRLLIKYASASISGIPSRFSGSGSGTDFTLSINSVESEDIADYYCQQSNSWPLTFGAGTKLELKR	24
9D33 IgG (antibody, V domains shown) VH: DVQIQQPGTELVKPGASVRLSCKASGYTFTTYWMHWVKQRPGQGLEWIGEIDPSDSYTNYNQKFKGKATLTVDKSSSTAYMHLSSLTSEDSAVYYCSRNYGSGYYFDYWGQGTTLTVSS VL: GVEMTQSPAIMSASPGEKVTMTCSASSSVSYMHWYQQKSGTSPKRWIYDTSKLASGVPARFSGSGSGTSYSLTISSMETEDAATYYCQQWSSNPWTFGGGTKLEIK	48

// moving on: another record for % inhib of 125I-M22 IgG binding at 1 µg/mL
Specify measured % inhib of 125I-M22 IgG binding at 1 µg/mL for 16E5 IgG (antibody, V domains shown) VH: DVQLVQSGPELVKPGASVKMSCKASGYSFTGYNMHWVKQSHGKSLEWIGYIDPYNGATSYNQKFEDKATLTVDKSSSTAYMQLNSLTSEDSAVYYCARRWDWDPYAMDYWGQGTSVTVSS VL: DILLTQSPAILSVSPGERVSFSCRASQSIGTSIHWYQQRTNGSPRLLIKYASESISGIFSRFSGSGSGTDFTLTINSVESEDIADYYCQQSNRWPLTFGAGTKLELKR . 40
